Items are presented alongside their recorded protein stability index.
B1: EDARADD (parent)
chain: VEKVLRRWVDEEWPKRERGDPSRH

variants of: B1; assay: protein stability index of a GFP-peptide fusion (GPS, HEK-293T) (PSI 1-6); higher = more stable; conditions: c terminus: a fixed tail appended;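 further: lentivirally expressed fusions sorted by FACS into six bins by GFP to DsRed ratio, PSI derived from sequencing read proportions per bin multiplied by bin number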

sequence_entry | protein stability index
VEKVLRRWVDEEWPKRERGRPSRH [D20R] | 2.48
VEKVLRRWVDEEWPKCERGDPSRH [R16C] | 2.67
VEKVLRRKVDEEWPKRERGDPSRH [W8K] | 4.43
VEKVLRRWHDEEWPKRERGDPSRH [V9H] | 3.46
VEKVLRRWVDSEWPKRERGDPSRH [E11S] | 2.71
VEKVMRRWVDEEWPKRERGDPSRH [L5M] | 3.3
VEKVLRRWVDEEEPKRERGDPSRH [W13E] | 3.75
VEKVLRRWVDEEWPKRERGMPSRH [D20M] | 2.21
VEKVLRMWVDEEWPKRERGDPSRH [R7M] | 2.69
VEKVLRRWVDEEWPKRECGDPSRH [R18C] | 2.91
VYKVLRRWVDEEWPKRERGDPSRH [E2Y] | 1.89
VEKVLRRWVDEEWPKRERGDCSRH [P21C] | 2.51
VEKVLRRWVDEEWPKRKRGDPSRH [E17K] | 2.96
VEKVLRRWVDECWPKRERGDPSRH [E12C] | 2.28
VEKVLRRWVDEEWPKRERGDPSRV [H24V] | 2.93
VEKVSRRWVDEEWPKRERGDPSRH [L5S] | 2.8
VWKVLRRWVDEEWPKRERGDPSRH [E2W] | 2.05
VEKVLRRQVDEEWPKRERGDPSRH [W8Q] | 4.78
VEKVLRAWVDEEWPKRERGDPSRH [R7A] | 3.09
VEKVLRNWVDEEWPKRERGDPSRH [R7N] | 4.48
VEKVLRRIVDEEWPKRERGDPSRH [W8I] | 3.4
VEKVLRRWVDEEWPKRERGDGSRH [P21G] | 3.02
VEKVVRRWVDEEWPKRERGDPSRH [L5V] | 3.23
VEKVLRRAVDEEWPKRERGDPSRH [W8A] | 3.98
VCKVLRRWVDEEWPKRERGDPSRH [E2C] | 2.3
VEKVLRRWVDEEWPKRERTDPSRH [G19T] | 2.55
VEKVLRRWVDEEWPKRERNDPSRH [G19N] | 2.41
VEKVLRRWVDEEWPKRERGDPRRH [S22R] | 3.51
VECVLRRWVDEEWPKRERGDPSRH [K3C] | 3.38
VEKVLRRWVDEEWPRRERGDPSRH [K15R] | 2.42
VEKVLRRWVDEEWPKRERGDPSQH [R23Q] | 2.96
VEKVLRRWVDEEWPKRERGDTSRH [P21T] | 2.68
VEKVLRRWVDEEWPKRERGDPSIH [R23I] | 3.32
VEKVLRRWVDEEWPKRERGDPSPH [R23P] | 3.56
VEKVLRRWPDEEWPKRERGDPSRH [V9P] | 3.51
VEKVLRRWVDEEWPKRERGDESRH [P21E] | 3.51
VEKVKRRWVDEEWPKRERGDPSRH [L5K] | 2.96
VEKVLRRWSDEEWPKRERGDPSRH [V9S] | 4.07
VEKVLRRWVDEEWPKRERGDPSEH [R23E] | 3.71
VTKVLRRWVDEEWPKRERGDPSRH [E2T] | 2.24
VEKVLRLWVDEEWPKRERGDPSRH [R7L] | 2.62
VEKVLRRWVDPEWPKRERGDPSRH [E11P] | 2.2
VEKVLRRWVDEEWPKRERHDPSRH [G19H] | 3.06
VEKVLRRWVDEEYPKRERGDPSRH [W13Y] | 2.79
VEKVLRRWVDEEWPKRLRGDPSRH [E17L] | 2.7
VEKVLRRWVDEEGPKRERGDPSRH [W13G] | 4.24
